Item-by-item account of CC50 at 72 h
run description: Calcein AM cytotoxicity assay, BJ cells
measurement parameters: human, bj fibroblasts
Protocol: All compound concentrations were examined in duplicates. […] Zero cytotoxicity is a basic prerequisite for the use of these substances in cosmetical applications. To assess the antitumor activity, the toxicity of new derivatives on panels containing cell lines of different histogenic and species origin was tested (Table 5). […] The compounds listed in Table 5 can be divided into 2 groups. […]

The examples below pair each entry with its known result.
{"columns": ["molecule", "CC50 at 72 h"],
 "data": [
  ["Oc1ccccc1CNc1nc(F)nc2c1ncn2C1CCCO1 (stereo not drawn) [Compound 14]", "> 167 µM"],
  ["COc1cccc(CNc2nc(F)nc3c2ncn3C2CCCO2)c1 (stereo not drawn) [Compound 18]", "> 167 µM"],
  ["COc1ccc(CNc2nc(F)nc3c2ncn3C2CCCO2)cc1OC (stereo not drawn) [Compound 39]", "> 167 µM"],
  ["Oc1cccc(CNc2ncnc3[nH]cnc23)c1 [meta-topolin, reference compound]", "166 µM"],
  ["CC(CO)CCNc1nc(F)nc2c1ncn2C1CCCO1 (stereo not drawn) [Compound 11]", "> 167 µM"],
  ["COc1cccc(OC)c1CNc1nc(F)nc2c1ncn2C1CCCO1 (stereo not drawn) [Compound 38]", "> 167 µM"]
]}

Item: COc1cccc(CNc2nc(F)nc3c2ncn3C2CCCO2)c1O (stereo not drawn) [Compound 20] | CC50 at 72 h: 137 µM

So, CC(C)=CCNc1ncnc2nc[nH]c12 [isopentenyladenine, reference compound] ? Its CC50 at 72 h was 134 µM

response.value for CC(CO)CCNc1nc(F)nc2c1ncn2C1CCCCO1 (stereo not drawn) [Compound 72] (field: CC50 at 72 h) = > 167 µM

###

run description: Calcein AM cytotoxicity assay, NIH3T3 cells
measurement parameters: mouse
Description: All compound concentrations were examined in duplicates. […] Zero cytotoxicity is a basic prerequisite for the use of these substances in cosmetical applications. To assess the antitumor activity, the toxicity of new derivatives on panels containing cell lines of different histogenic and species origin was tested (Table 5). […] The compounds listed in Table 5 can be divided into 2 groups. […]
value kind: IC50 at 72 h

Reference set, count: 2
{"columns": ["compound", "result"],
 "data": [
  ["Oc1ccc(CNc2nc(F)nc3c2ncn3C2CCCO2)cc1 (stereo not drawn) [Compound 16]", "> 167 µM"],
  ["COc1cc(CNc2nc(F)nc3c2ncn3C2CCCO2)ccc1O (stereo not drawn) [Compound 43]", "> 167 µM"]
]}

Consider Fc1nc(NCc2ccccc2)c2ncn(C3CCCCO3)c2n1 (stereo not drawn) [Compound 64] . Its measured IC50 at 72 h is 128 µM

###

# IC50 at 72 h values compiled below
run description: Calcein AM cytotoxicity assay, NIH3T3 cells
measurement parameters: mouse
Method: All compound concentrations were examined in duplicates. […] Zero cytotoxicity is a basic prerequisite for the use of these substances in cosmetical applications. To assess the antitumor activity, the toxicity of new derivatives on panels containing cell lines of different histogenic and species origin was tested (Table 5). […] The compounds listed in Table 5 can be divided into 2 groups. […]

{"columns": ["molecule", "result"],
 "data": [
  ["COc1cccc(CNc2nc(F)nc3c2ncn3C2CCCCO2)c1 (stereo not shown) [Compound 67]", "> 167 µM"],
  ["Oc1cccc(CNc2nc(F)nc3c2ncn3C2CCCCO2)c1 (stereo not shown) [Compound 65]", "> 167 µM"],
  ["Cc1ccc(CNc2nc(F)nc3c2ncn3C2CCCCO2)o1 (stereo not shown) [Compound 60]", "> 167 µM"]
]}

Reported IC50 at 72 h for COc1ccc(CNc2nc(F)nc3c2ncn3C2CCCCO2)cc1 (stereo not shown) [Compound 68] was > 167 µM

Record summary for c1coc(CNc2ncnc3[nH]cnc23)c1 [Kinetin, reference compound] : reported IC50 at 72 h = 133 µM

Lookup result for Nc1ncnc2nc[nH]c12 [Adenine, reference compound] ; measured IC50 at 72 h: > 167 µM

Entry under test: Oc1ccc(CNc2nc(F)nc3c2ncn3C2CCCCO2)cc1 (stereo not shown) [Compound 66] . Its IC50 at 72 h was > 167 µM

The reported IC50 at 72 h of the molecule Fc1nc(NCc2ccco2)c2ncn(C3CCCCO3)c2n1 (stereo not shown) [Compound 57] was 138 µM

Recorded IC50 at 72 h (molecule Oc1cccc(CNc2nc(F)nc3c2ncn3C2CCCO2)c1 (stereo not shown) [Compound 15] ): > 167 µM

// recorded IC50 at 72 h for COc1ccccc1CNc1nc(F)nc2c1ncn2C1CCCO1 (stereo not shown) [Compound 17] : > 167 µM

Reference source for all entries: patent EP4178959B1
